target: Serotonin 5-HT7 Receptors (Homo sapiens (Human)); assay: Radiolabel Binding Studies for Serotonin 5-HT7 Receptors, Method 2 ([3H]-5HT competition; Ki and percent inhibition at 10 μM); conditions: @ 10 μM single concentration; read-out: 5-HT7 percent inhibition of radioligand binding
ASSAY READOUT: inhibition at 10 µM (%)
Could you give me the number in %? Just the number is fine.

query: Output measured inhibition at 10 µM for this item: CCC1(CC)CC(CCN2CC3CN(c4cccc(O)c4)CC3C2)OC1=O (centres unmarked) [Entry 14]
result: 39.8

query: Please give the documented inhibition at 10 µM of CCC1(CC)CC(CCN2CC3CN(c4ccc(OC)cc4)CC3C2)OC1=O (centres unmarked) [Entry 12]
result: 24.5

query: Quick one: give measured inhibition at 10 µM for CCC1(CC)CC(CCN2CC3CN(c4ccc(C)cc4)CC3C2)OC1=O (centres unmarked) [Entry 6]
result: 44.5

query: Give the value of inhibition at 10 µM reported for the following: CCC1(CC)CC(CCN2CC3CN(c4cccc(C#N)c4)CC3C2)OC1=O (centres unmarked) [Entry 8]
result: 48.9

query: Name the recorded inhibition at 10 µM of the molecule listed here: CCC1(CC)CC(CCN2CC3CN(c4ccc(C#N)cc4)CC3C2)OC1=O (centres unmarked) [Entry 9]
result: 26.3

###

Entries below carry reported IC50 on Serotonin 5-HT7 Receptors (Homo sapiens (Human), UniProt P34969).
Sequence (P34969 whole entry): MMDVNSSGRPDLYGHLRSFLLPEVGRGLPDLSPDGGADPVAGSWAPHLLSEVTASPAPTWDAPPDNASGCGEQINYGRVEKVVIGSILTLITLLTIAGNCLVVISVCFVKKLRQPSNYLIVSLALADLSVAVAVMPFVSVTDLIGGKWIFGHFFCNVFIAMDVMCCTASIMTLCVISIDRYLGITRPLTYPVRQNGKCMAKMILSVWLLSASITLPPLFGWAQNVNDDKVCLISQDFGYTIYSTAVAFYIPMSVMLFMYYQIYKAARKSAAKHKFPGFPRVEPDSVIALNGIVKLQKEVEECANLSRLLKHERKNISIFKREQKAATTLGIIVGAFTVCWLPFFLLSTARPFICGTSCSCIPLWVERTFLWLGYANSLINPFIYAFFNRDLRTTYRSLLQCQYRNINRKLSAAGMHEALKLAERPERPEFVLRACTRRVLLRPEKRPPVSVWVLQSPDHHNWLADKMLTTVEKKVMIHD
A number alone suffices; assume nM.

query: State its IC50: CCC1(CC)CC(CCN2CC3CN(c4ccccc4OC)CC3C2)OC1=O (stereo not shown)
result: 151

query: Report measured IC50; entry is CCC1(CC)CC(CCN2CC3CN(c4ccccc4N4CCOCC4)CC3C2)OC1=O (stereo not shown)
result: 160

query: Give the value of IC50 reported for the following: CCC1(CC)CC(CCN2CC3CN(c4ccccc4C)CC3C2)OC1=O (stereo not shown)
result: 179

query: Give reported IC50 value for CCC1(CC)CC(CCN2CC3CN(c4ccccc4)CC3C2)OC1=O (stereo not shown)
result: 64

query: Give recorded IC50. CCC1(CC)CC(CCN2CC3CN(c4ccc(O)cc4)CC3C2)OC1=O (stereo not shown)
result: 130

query: Provide IC50 value for the following molecule: CCC1(CC)CC(CCN2CC3CN(c4ccccc4O)CC3C2)OC1=O (stereo not shown)
result: 227

query: Hello, please tell me recorded IC50 for this one: CCC1(CC)CC(CCN2CC3CN(c4ccccc4C#N)CC3C2)OC1=O (stereo not shown)
result: 8.9
